Please go through the items and note down their MIC.
- Tested on: Klebsiella pneumoniae ATCC 10031
- EXPERIMENT_NOTES: Antibacterial activity, MIC
- Type: cell-based
- RUN_CONDITIONS: ATCC10031, ATCC 10031, agar two-fold dilution, 37° C., 20 hours, read-out: MIC

Example results:
COMPOUND	MEASURED_RESULT
C#CCO/N=C(\C(=O)NC1C(=O)N2C(C(=O)[O-])=C(CSc3nc(N)cc(N)[n+]3CC)CSC12)c1csc(N)n1 (stereo not shown) [Compound I-47]	≤ 8 ng/mL
CO/N=C(\C(=O)NC1C(=O)N2C(C(=O)[O-])=C(CSc3nc(N)cc(N)[n+]3N)CSC12)c1csc(N)n1 (stereo not shown) [Compound I-19]	≤ 8 ng/mL

Consider the following items and state reported MIC for each.
1. C#CCO/N=C(\C(=O)NC1C(=O)N2C(C(=O)[O-])=C(CSc3nc(N)cc(N)[n+]3N)CSC12)c1csc(N)n1 (stereo not shown) [Compound I-18]
2. CCO/N=C(\C(=O)NC1C(=O)N2C(C(=O)[O-])=C(CSc3nc(N)cc(N)[n+]3CC)CSC12)c1csc(N)n1 (stereo not shown) [Compound I-12]

Outgoing:
["≤ 8 ng/mL", "≤ 8 ng/mL"]

Data provenance is patent US5202315A.
